Provide the reported IC50 of each item.
biological target: CDK2/cyclin E (Homo sapiens); assay: Kinase assay, radioactive phosphate incorporation, CDK2/cyclin E; settings: 100 μM ATP, 30° C.; read-out: Kinase inhibition IC50 CDK2/cyclin E
Numeric only. Scale: µM

Output IC50 of Nc1cccc(-c2ccnc(Nc3ccc(O)cc3)n2)c1 [Compound 15]
0.36

Consider the compound CN(C)c1ccc(Nc2nccc(-c3cccc(Cn4cncn4)c3)n2)cc1 [Compound 43] . State its measured IC50.
3.7

Please list IC50 recorded for the compound Cc1ccc(Nc2nccc(-c3cccc(CN4CCCCC4CO)c3)n2)cc1[N+](=O)[O-] (centres unmarked) [Compound 108]
0.06

Output IC50 of CCN(Cc1cccc(-c2ccnc(Nc3ccc(OC)nc3)n2)c1)C(C)C [Compound 53]
0.35

Complete the entry with IC50 for O=[N+]([O-])c1cccc(Nc2nccc(-c3ccc(Cl)c(Cn4cncn4)c3)n2)c1 [Compound 47]
1.4

---

target: CDK2/cyclin A (Homo sapiens); test: Kinase assay, radioactive phosphate incorporation, CDK2/cyclin A; conditions: 100 μM ATP, 30° C.; read-out: Kinase inhibition IC50 CDK2/cyclin A
Would you kindly list pIC50 for each of these compounds?
// pIC50: -log10(molar conc.)

Identify the reported pIC50 for the following entry. CN(c1cccc(-c2ccnc(Nc3cccc([N+](=O)[O-])c3)n2)c1)S(C)(=O)=O [Compound 129]
6.36

State its pIC50: Clc1ccc(Nc2nccc(-c3cccc(CNCc4ccccc4)c3)n2)cn1 [Compound 48]
5.01

Supply reported pIC50 belonging to this compound: O=[N+]([O-])c1cccc(Nc2nccc(-c3cccc(CN4CCOCC4)c3)n2)c1 [Compound 39]
5.62

Give pIC50 for the following compound: Oc1cccc(Nc2nccc(-c3cccc(Cl)c3)n2)c1 [Compound 18]
5.51

Return pIC50 (reported value) for this compound: CN(C)Cc1cccc(-c2ccnc(Nc3cccc(O)c3)n2)c1 [Compound 80]
6.23

Output pIC50 of CN(c1cccc(-c2ccnc(Nc3ccc(O)cc3)n2)c1)S(C)(=O)=O [Compound 131]
6.35

Quickly give me recorded pIC50 for COc1ccc(Nc2nccc(-c3cccc(Cn4ccnc4)c3)n2)cn1 [Compound 59]
7.22

For the compound Oc1ccc(Nc2nccc(-c3cccc(Cn4cncn4)c3)n2)cc1 [Compound 33] , give its reported pIC50.
5.70

Give a short answer stating reported pIC50 for NC(=O)C1CCCN(Cc2cccc(-c3ccnc(Nc4cccc([N+](=O)[O-])c4)n3)c2)C1 (centres unmarked) [Compound 99] .
5.77

Provide pIC50 value for the following compound: COc1cccc(-c2ccnc(Nc3ccc(O)cc3)n2)c1 [Compound 98]
5.85

Find the measured pIC50 of CCN(C(C)=O)c1cccc(-c2ccnc(Nc3ccc(OC)cc3)n2)c1 [Compound 23] and report it.
5.92

Note pIC50 for the compound shown: Cc1ccc(Nc2nccc(-c3cccc(CN4CCCCC4CO)c3)n2)cc1[N+](=O)[O-] (centres unmarked) [Compound 108]
6.36

Entry O=[N+]([O-])c1cccc(Nc2nccc(-c3cccc(CN4CCCC(CO)C4)c3)n2)c1 (centres unmarked) [Compound 105] needs its pIC50 filled in; supply it.
6.46

Determine from records and report pIC50 for O=[N+]([O-])c1cccc(Nc2nccc(-c3cccc(CNCc4ccccc4)c3)n2)c1 [Compound 27]
5.19

Look up pIC50 of COc1ccc(-c2ccnc(Nc3cccc([N+](=O)[O-])c3)n2)cc1 [Compound 94] and report it.
6.03

Identify the reported pIC50 for the following entry. Oc1ccc(Nc2nccc(-c3cccc(Cl)c3)n2)cc1 [Compound 17]
5.68

Provide one value: measured pIC50 of Oc1cccc(Nc2nccc(-c3cccc(Cn4cncn4)c3)n2)c1 [Compound 34]
5.62

Please give the documented pIC50 of COc1ccc(-c2ccnc(Nc3ccc(OC)nc3)n2)cc1 [Compound 124]
5.96

Identify pIC50 associated with the compound CCN(Cc1cccc(-c2ccnc(Nc3cccc([N+](=O)[O-])c3)n2)c1)C(C)C [Compound 46]
6.32

Read the entry CCN(CC)Cc1cccc(-c2ccnc(Nc3cccc([N+](=O)[O-])c3)n2)c1 [Compound 84] and write its reported pIC50.
7.70

Determine its reported pIC50: O=[N+]([O-])c1cccc(Nc2nccc(-c3cccc(CN4CCCCC4CO)c3)n2)c1 (centres unmarked) [Compound 79]
6.82

Please report pIC50 for the following compound: CN(c1cccc(-c2ccnc(Nc3cccc(O)c3)n2)c1)S(C)(=O)=O [Compound 130]
6.21

State its pIC50: N#Cc1cccc(Nc2nccc(-c3cccc(Cn4cncn4)c3)n2)c1 [Compound 36]
5.41

Dear colleague, please send me the reported pIC50 for COc1ccc(Nc2nccc(-c3cccc(CN4CCN(C)CC4)c3)n2)cn1 [Compound 58] when you can.
5.00

Recall and state the measured pIC50 for OCc1cccc(-c2ccnc(Nc3cccc(O)c3)n2)c1 [Compound 115] .
5.70

For the compound COc1cccc(Nc2nccc(-c3cccc(Cn4cncn4)c3)n2)c1 [Compound 35] , give its measured pIC50 value.
5.49

Fill in reported pIC50 for this entry: O=[N+]([O-])c1cccc(Nc2nccc(-c3cccc(Cn4ccnc4)c3)n2)c1 [Compound 29]
5.29

Return value of pIC50 for input COc1ccc(-c2ccnc(Nc3ccc(O)cc3)n2)cc1 [Compound 110] , no commentary.
7.10

Tell me measured pIC50 for CCOc1ccc(-c2ccnc(Nc3cccc(O)c3)n2)cc1 [Compound 109] please.
5.70

State, in one line, measured pIC50 of CCNc1cccc(-c2ccnc(Nc3ccc(OC)cc3)n2)c1 [Compound 25]
7.52

Tell us which pIC50 value is on record for OCc1cccc(Nc2nccc(-c3cccc(O)c3)n2)c1 [Compound 72]
6.82

Indicate the recorded pIC50 value for this compound: CN(C)Cc1cccc(-c2ccnc(Nc3ccc(O)cc3)n2)c1 [Compound 81]
6.30

Report measured pIC50; entry is Oc1cccc(Nc2nccc(-c3cccc(CNCc4ccccc4)c3)n2)c1 [Compound 28]
6.00

Query pIC50 for CCN(Cc1cccc(-c2ccnc(Nc3ccc(OC)nc3)n2)c1)C(C)C [Compound 53]
5.47

Give me measured pIC50, please, for this compound: CN(C)Cc1cccc(-c2ccnc(Nc3cccc([N+](=O)[O-])c3)n2)c1 [Compound 71]
7.52

Please look at this compound and report its pIC50: COc1ccc(Nc2nccc(-c3cccc(CN(C)C)c3)n2)cn1 [Compound 83]
6.19

Determine from records and report pIC50 for CN1CCN(Cc2cccc(-c3ccnc(Nc4cccc([N+](=O)[O-])c4)n3)c2)CC1 [Compound 54]
6.09

---

molecular target: UniProt:P49841; experiment: Kinase assay, radioactive phosphate incorporation, GSK3β; type: biochemical; conditions: 100 μM ATP, 30° C.; read-out: Kinase inhibition IC50 GSK3β
value-kind: pIC50
// pIC50 here means minus log10 of the molar concentration (mol/L)

Please supply the value of reported pIC50 for the item COc1ccc(Nc2nccc(-c3cccc(O)c3)n2)cn1
7.30

Indicate the recorded pIC50 value for this molecule: CN(c1cccc(-c2ccnc(Nc3cccc(O)c3)n2)c1)S(C)(=O)=O
7.30

Please report the measured pIC50 for CN(C)c1ccc(Nc2nccc(-c3cccc(Cn4cncn4)c3)n2)cc1
6.72

Please report pIC50 for the following molecule: Cc1ccc(C)c(-c2ccnc(Nc3cccc([N+](=O)[O-])c3)n2)c1
6.24

Please report the measured pIC50 for Oc1cccc(Nc2nccc(-c3cccc(O)c3)n2)c1
7.15

Tell me its pIC50 given CN(C)Cc1cccc(-c2ccnc(Nc3cccc([N+](=O)[O-])c3)n2)c1 as the entry.
7.52

Determine its reported pIC50: O=[N+]([O-])c1cccc(Nc2nccc(-c3ccc(Cl)c(Cn4cncn4)c3)n2)c1
6.89

Provide only the value of recorded pIC50 for COc1ccc(Nc2nccc(-c3ccc(Cl)c(Cl)c3)n2)cn1
5.28

Please indicate pIC50 recorded for OCc1cccc(-c2ccnc(Nc3cccc(O)c3)n2)c1
7.15

---

value-kind: pIC50
pIC50 is a log-scale quantity: -log10 of the concentration expressed in molar.

Output reported pIC50 of the compound COc1cccc(Nc2nccc(-c3cccc(Cn4cncn4)c3)n2)c1 [Compound 35] on GSK3β (Homo sapiens).
Sequence (P49841 whole entry, species assumed): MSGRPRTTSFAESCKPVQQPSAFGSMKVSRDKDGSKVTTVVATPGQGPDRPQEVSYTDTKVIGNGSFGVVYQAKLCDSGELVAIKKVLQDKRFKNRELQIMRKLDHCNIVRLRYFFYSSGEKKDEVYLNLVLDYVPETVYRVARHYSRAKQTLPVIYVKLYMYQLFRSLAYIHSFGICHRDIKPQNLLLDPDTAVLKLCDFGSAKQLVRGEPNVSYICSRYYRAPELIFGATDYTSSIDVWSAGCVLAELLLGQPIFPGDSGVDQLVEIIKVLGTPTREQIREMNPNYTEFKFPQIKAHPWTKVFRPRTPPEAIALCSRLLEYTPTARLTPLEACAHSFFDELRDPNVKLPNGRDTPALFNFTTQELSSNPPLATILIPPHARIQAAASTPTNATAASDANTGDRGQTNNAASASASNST
7.00

Would you please give the reported pIC50 of N#Cc1cccc(Nc2nccc(-c3cccc(Cn4cncn4)c3)n2)c1 [Compound 36] with GSK3β (Homo sapiens)?
7.49

State, for GSK3β (Homo sapiens), measured pIC50 of the compound listed here: CN(C)Cc1cccc(-c2ccnc(Nc3cccc(O)c3)n2)c1 [Compound 80]
6.08

Please indicate recorded pIC50 of Nc1cccc(-c2ccnc(Nc3cccc([N+](=O)[O-])c3)n2)c1 [Compound 19] measured with GSK3β (Homo sapiens).
7.26

Identify measured pIC50 obtained with GSK3β (Homo sapiens) for O=[N+]([O-])c1cccc(Nc2nccc(-c3cccc(CO)c3)n2)c1 [Compound 91] .
9.15

Report value: pIC50, system: GSK3β (Homo sapiens), compound: COc1ccc(Nc2nccc(-c3cccc(N(C)S(C)(=O)=O)c3)n2)cn1 [Compound 132]
6.77

# lookup: GSK3β (Homo sapiens) pIC50, key = N#Cc1cccc(-c2ccnc(Nc3cccc(O)c3)n2)c1 [Compound 92]
7.10

Write down measured pIC50 (GSK3β (Homo sapiens)) for this compound. Clc1ccc(Nc2nccc(-c3cccc(CNCc4ccccc4)c3)n2)cn1 [Compound 48]
6.49

Recall the reported pIC50 of O=[N+]([O-])c1cccc(Nc2nccc(-c3cccc(Cn4ccnc4)c3)n2)c1 [Compound 29] when tested on GSK3β (Homo sapiens).
7.30
